Tested on: human lung cancer cell line A549
Assay: Cell cycle (PI staining, S-G2-M cells) and pRB immunoblot, A549
Assay type: cell-based
Conditions: Homo sapiens, 144 h; A549, 6 days; read-out: IC50 (percentage of S-G2-M cells)

# Smiles Repr, IC50
rows = [
    ("CC(=O)c1c(C)c2cnc(Nc3nc(CN4CCNCC4)cs3)nc2[nH]c1=O", "~0.05 µM"),
]
